# method-summary: log D (shake flask, 1-octanol/aqueous buffer)
# Format: physicochemical
# study-conditions: 1-octanol/aqueous buffer, pH 7.4, pH 7.4, 1-octanol/aqueous buffer
# Excerpt: The lipophilicity of a drug is an important physical property which may influence many biological and metabolic properties of a compound, for example the absorption, distribution, metabolism, excretion and toxicity profiles of a compound. The distribution coefficient between 1-octanol and aqueous buffer, Log DO/W, at pH 7.4, is the most commonly used measurement of the lipophilicity of a compound. […]
measured-property: logD
Form field (numeric): enter value without unit.

C[C@@H]1Cc2c(ccc3[nH]ncc23)[C@@H](c2cnc(NC3CN(CCCF)C3)cn2)N1CC(F)(F)F [Example 42]    2.4
C[C@@H]1Cc2c(ccc3[nH]ncc23)[C@@H](c2cnc(NC3CN(CCCF)C3)cn2)N1CC(F)F [Example 50]    2.1
CC(C)CN1[C@H](c2ccc(NC3CN(CCCF)C3)cn2)c2ccc3[nH]ncc3c2C[C@H]1C [Example 69]    2.9

Entry C[C@@H]1Cc2c(ccc3[nH]ncc23)[C@@H](c2ccc(NC3CN(CCCF)C3)cc2)N1CC(F)(F)F [Example 27] : reported logD = ?
3.8

For C[C@@H]1Cc2c(ccc3[nH]ncc23)[C@@H](c2ncc(NC3CN(CCCF)C3)cc2F)N1CC(F)(F)CO [Example 31] , what is its reported logD?
2

# lookup: logD of COc1cc(NC2CN(CCCF)C2)cnc1[C@@H]1c2ccc3[nH]ncc3c2C[C@@H](C)N1CC(F)(F)F [Example 37]
2.6

Which logD value belongs to C[C@@H]1Cc2c(ccc3[nH]ncc23)[C@@H](c2c(F)cc(NC3CN(CCCF)C3)cc2F)N1CC(F)(F)F [Example 8] ?
4.4

Which measured logD value corresponds to COc1cc(NC2CN(CCCF)C2)ncc1[C@@H]1c2ccc3[nH]ncc3c2C[C@@H](C)N1CC1(F)CC1 [Example 9] ?
1

Requested read-out: logD. Entry: C[C@@H]1Cc2c(ccc3[nH]ncc23)[C@@H](c2ccc(NC3CN(CCCF)C3)cc2)N1CC(F)F [Example 48]
3.1

Need logD, item C[C@@H]1Cc2c(ccc3[nH]ncc23)[C@@H](c2ccc(NC3CN(CCCF)C3)nc2)N1CC1(F)CC1 [Example 54]
1.4

Which logD is reported for this compound? C[C@@H]1Cc2c(ccc3[nH]ncc23)[C@@H](c2ccc(OC3CN(CCCF)C3)cn2)N1CC(F)(F)CO [Example 58]
2.4

Look up logD for this compound: COc1cc(OC2CN(CCCF)C2)ccc1[C@@H]1c2ccc3[nH]ncc3c2C[C@@H](C)N1CC(F)F [Example 22]
4

Bench note: what logD did CC(F)CN1[C@H](c2ccc(NC3CN(CCCF)C3)cn2)c2ccc3[nH]ncc3c2C[C@H]1C (single isomer, unassigned) [Example 65] show?
2.4

Please look up its logD: C[C@@H]1Cc2c(ccc3[nH]ncc23)[C@@H](c2ccc(NC3CN(CCCF)C3)cn2)N1CC(F)F [Example 25]
2.5
